For each record, write down the corresponding IC50.
# tgt: MCH receptor (SLC-1) (UniProt Q99705)
# assay-text: MCH receptor antagonistic activity using GTPγS binding assay
# Assay type: biochemical, human
# condition-set: [35S]-GTPγS binding, membrane fractions of SLC-1 expression CHO cells, 3×10^−10 M MCH, 25° C. 1 hr; read-out: Inhibitory Activity (IC50 value: nM)
Answers are plain numbers, in nM.

Please review the following examples before continuing.
{"molecule-smiles": "Cc1c(NC(=O)c2ccc(C#CC3CC3)cc2)ccc2cc(CNC3CCN(S(C)(=O)=O)CC3)cnc12", "result-type": "IC50", "value-reported": 2.3}
{"molecule-smiles": "Cc1c(NC(=O)c2ccc(OCC3CC3)cc2)ccc2cc(CNC3CCN(S(C)(=O)=O)CC3)cnc12", "result-type": "IC50", "value-reported": 3.9}
{"molecule-smiles": "Cc1c(NC(=O)c2ccc(OCC3CC3)cc2)ccc2cc(CNCC3CCS(=O)(=O)CC3)cnc12", "result-type": "IC50", "value-reported": 1.8}

Now take the following molecule into account.
Short answer please: IC50, MCH receptor (SLC-1) (UniProt Q99705), entry Cc1c(NC(=O)c2ccc(OCCC3CC3)cc2F)ccc2cc(CNC3CCS(=O)(=O)CC3)cnc12
1.5

###

# tgt: UniProt Q99705
# assay-text: MCH receptor antagonistic activity using GTPγS binding assay
# Type: biochemical, human
# condition-set: [35S]-GTPγS binding, membrane fractions of SLC-1 expression CHO cells, 3×10^−10 M MCH, 25° C. 1 hr; read-out: Inhibitory Activity (IC50 value: nM)
For each record, write down the corresponding IC50.
One number for each entry, in nM.

{"compound": "Cc1c(NC(=O)c2ccc(OCCC3CC3)cc2)ccc2cc(CNC3CCS(=O)(=O)CC3)cnc12 [Ex. 20]", "units-label": "nM", "IC50": 1.4}
{"compound": "Cc1c(NC(=O)c2ccc(OCC3CC3)cc2)ccc2cc(CNCCNS(C)(=O)=O)cnc12 [Ex. 6]", "units-label": "nM", "IC50": 4}
{"compound": "Cc1c(NC(=O)c2ccc(OCC3CC3)cc2)ccc2cc(CNCCCS(C)(=O)=O)cnc12 [Ex. 2]", "units-label": "nM", "IC50": 2.3}
{"compound": "Cc1c(NC(=O)c2ccc(OCC3CC3)cc2)ccc2cc(C(C)NCCNS(C)(=O)=O)cnc12 (centres unmarked) [Ex. 7]", "units-label": "nM", "IC50": 3.7}
{"compound": "Cc1c(NC(=O)c2ccc(C#CC3CC3)cc2)ccc2cc(CNCC3(O)CCS(=O)(=O)CC3)cnc12 [Ex. 43]", "units-label": "nM", "IC50": 4.7}

For each of the items listed, what is its IC50?
1. Cc1c(NC(=O)c2ccc(OCC3CC3)cc2)ccc2cc(CNC3CCS(=O)(=O)CC3)cnc12 [Ex. 31]
2. Cc1c(NC(=O)c2ccc(OCC3CC3)cc2)ccc2cc(CNCCCC[S+](C)[O-])cnc12 (centres unmarked) [Ex. 26]
3. Cc1c(NC(=O)c2ccc(OCCC3CC3)cc2)ccc2cc(CNCCCS(C)(=O)=O)cnc12 [Ex. 18]

1. 5.1
2. 4.6
3. 1.1
